System: SF-539
Experiment: NCI tumour cell line growth inhibition, 48 h
The source made the active and inactive calls. Rule as the data show it: active = GI50 up to about 1.1 µM and inactive = higher.

# COMPOUND, GI50
measured = [
    ("O=C(O)c1ccc(NNC(=O)c2cccc3c(=O)c4ccccc4[nH]c23)cc1", "> 100 µM (inactive)"),
    ("CC(C)=CCC/C(C)=C/Cc1c(O)c(C)cc2c1[nH]c1cc(O)ccc12", "> 25 µM (inactive)"),
    ("COc1cc([N+](=O)[O-])c(S(=O)(=O)O)cc1-n1nc(-c2ccccc2)n[n+]1-c1cc(S(=O)(=O)[O-])c([N+](=O)[O-])cc1OC", "> 100 µM (inactive)"),
    ("CC(=O)O[C@H]1CC[C@@]2(C)C(=CC[C@H]3[C@@H]4C/C(=C\\c5ccncc5)[C@H](OC(C)=O)[C@@]4(C)CC[C@@H]32)C1", "3.95 µM (inactive)"),
    ("O=C1Nc2c(Cl)cc(Cl)cc2/C1=N/NC(=O)c1ccncc1", "21.6 µM (inactive)"),
    ("Clc1ccc(-c2nnc3c4nnc(-c5ccc(Cl)cc5Cl)n4c4ccccc4n23)c(Cl)c1", "> 100 µM (inactive)"),
    ("COC(=O)C1=C(C)NC(C)=C(C(=O)OC)C1c1cccc(/[N+]([O-])=C/c2ccccc2)c1", "> 100 µM (inactive)"),
    ("Cc1ccc(NC=O)c(-c2c(N)[nH]c(=S)[nH]c2=O)c1", "> 100 µM (inactive)"),
    ("c1csc(C(NC2=NCCO2)C2CC2)c1 (centres undefined)", "> 100 µM (inactive)"),
]
